- EXPERIMENTAL SYSTEM: GST-tagged ROR gamma ligand binding domain (LBD) (Homo sapiens, UniProt P51449)
- Construct: purchased Invitrogen
- Sequence (P51449 269-508 limits assumed): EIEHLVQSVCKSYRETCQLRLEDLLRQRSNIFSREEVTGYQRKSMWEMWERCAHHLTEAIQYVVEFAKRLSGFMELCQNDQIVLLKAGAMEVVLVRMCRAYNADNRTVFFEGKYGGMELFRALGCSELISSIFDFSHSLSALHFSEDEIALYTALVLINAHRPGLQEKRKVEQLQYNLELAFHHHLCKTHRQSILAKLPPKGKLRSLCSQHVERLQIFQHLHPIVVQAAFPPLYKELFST
- TEST METHOD NOTES: TR-FRET assay for ROR gamma (LanthaScreen co-activator peptide recruitment)
- Format: biochemical
- CONDITION LABEL: compound concentration 1 μM; TR-FRET ratio 520/495, percent of control
ENDPOINT LABEL: inhibition at 1 µM (%)
Could you give me the number in %? Just the number is fine.

# annotated cases, reported inhibition at 1 µM shown
CCC(F)(F)c1ccc(CC(=O)Nc2ccc(-c3nccnc3-c3ccc(F)cc3Cl)cc2)cc1; 81.1
CCC(F)(F)c1ccc(CC(=O)Nc2ccc(-c3nccnc3-c3ccc(C)cc3C)cc2)cc1; 82.3
CCC(F)(F)c1ccc(CC(=O)Nc2ccc(-c3nccnc3-c3ccc(F)cc3F)cc2)cc1; 78.2
CCC(F)(F)c1ccc(CC(=O)Nc2ccc(-c3nccnc3OCc3ccc(F)cc3Cl)cc2)cc1; 80.5
CCC(F)(F)c1ccc(CC(=O)Nc2ccc(-c3nccnc3-c3ccc(Cl)cc3)cc2)cc1; 80.9
CCC(F)(F)c1ccc(CC(=O)Nc2ccc(-c3nccnc3-c3ccccc3C)cc2)cc1; 77.7

Please look at the following compound next.
// query Please look up its inhibition at 1 µM: CCC(F)(F)c1ccc(CC(=O)Nc2ccc(-c3nccnc3N3CCN(C4COC4)CC3)cc2)cc1
// result 79.2

Reference source: patent US10344024B2
